B1: TPR t1 (parent)
chain: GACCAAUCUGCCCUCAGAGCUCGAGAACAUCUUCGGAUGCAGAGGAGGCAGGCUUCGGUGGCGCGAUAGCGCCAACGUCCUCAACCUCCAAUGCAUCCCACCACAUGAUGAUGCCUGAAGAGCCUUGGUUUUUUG

Variants of: B1
TEST METHOD NOTES: polymerase ribozyme fitness, log enrichment relative to wild type (log ratio); higher = more active; in vitro selection for triplet polymerase activity
ATTRIBUTE MEASURED: polymerase ribozyme fitness (log ratio)
Number only, please.

Please indicate polymerase ribozyme fitness (log ratio) recorded for "GACCCAUCUGCCCUCAGAGCUCGAGAACAUCCUCGGAUGCGGAGGAGGCAGGCUUCGGUAGCGCGAUAGCGCCAACGACCUCAACCUCCAAUGCAACCCACCACAUGAUGAUGCCUGAAGAGCCUUGGUUUUUUG"
-2.78

Read off the recorded polymerase ribozyme fitness (log ratio) for "GACCAAUCUGCCCUCAGAGCUCGAGAACAUCUUCGGAUGCAGAGUAGGCAGGCUUCGGUGGCGCGAUAACGCCAACGUCCUCAACCUCCAAUGCAUCCCACCACAUGAUGAUGCCUGAAGAGCCUUGGUUUUUUG"
-4.29

For "GACCAAUCUGCCCUCAGAGCUCGAGAACAUCUUCGGAUGCAGAGGAGGCAGGCUUCGGUGGCGCGAUAGCGCCAACGUCCUCAACCUCCAAUGCAUCCCACUACAUGAUGAUGCCUGAAUAGCCUUGGUUUUUUG" , write its polymerase ribozyme fitness (log ratio).
-0.992

// Input: "GACCAAUCUGCCCCCAGAGCUCGAGAACAUCUUCGGAUGCAUAAGAGGCAGGCUUCGGUGUCGCGAUAGCGCCAACGUCCUCAACCUCCAAUGCAUCCCACCACAUGAUGAUGCCUGAAGAGCCUUGGUUUUUUG" . Output its polymerase ribozyme fitness (log ratio) only.
-2.82

Using the record for "GACCAAUCUGCCCUCAGAGCUCGGGAACAUCUUCGGAUGCAGAGGAGGCAGGCUUCGGUGGCGCGAUAGCGCCAACGUCCUCAACCUCCAAUGCAUCCCACCACAUGAUGAUGCUUGAAGAGCCUUGGUUUUUUG" , state its measured polymerase ribozyme fitness (log ratio).
-2.59

Give recorded polymerase ribozyme fitness (log ratio). "GACCAAUCUGCCCACAGAGCUCGAGAACAUCUUCGGAUGCAGAGGCGGCAGGCUUCGGUGGCGCGAUAACGCCAACGUCCUCAACCUCCAAUGCAUCCCAUCACAUGAUUAUGCCUGAAGAGCCUAGGUUUUUUG"
-6.24

Please give the documented polymerase ribozyme fitness (log ratio) of "GACCAAUCUGCCUUCAGAGCUCGAGAACAUCUUCGGAUGCAGAGGAGGCAGGCUUCGGUGGCGCGAUAGCGCCAACGUCCUCAACCUCCAACGCAUCCCACCAUAUGAUGAUGCCUGAAGAGCCUUGGUUUUUUG"
-1.33

Note polymerase ribozyme fitness (log ratio) for the variant shown: "GACCAAACUGCCCUCAGAGCUCGAGAACAUCUUCGGAUGCAGAAGAGGCAGGCUUCGGUGGCGCGAUGGCGCCAACGUCCUCAACCUCCAAUGCAUCCCACCACAUGAUGAUGCCUGAAGAGCCUUGGUUUUUUG"
-5.14

Identify polymerase ribozyme fitness (log ratio) associated with the variant "GACCAAUCUGCCCUCAGAGCUCGAGAACAUCUUCGGAUGCAGACGAGGCAGGCUUCGGUGGCGCGAUAGCGCAAACGUCCUCAACCUCCAAUGCAUCCCACCACAUGAUGAUGCUUGAAGAGCCUUGGUUUUUUG"
-2.64

Look up and report measured polymerase ribozyme fitness (log ratio) for this entry: "GACCAAUCUGCCCUCAGAGCUCGAGAACAUCUUCGGAUGCAGUUGAGACAGGCUUCGGUGGCGCGAUAGCGCCAACGUCCUCAACCUCCAAUGCAUCCCACCACAUGAUGAUGCCUGAAGAACCUUGGUUUUUUG"
-2.63
